# target_of_assay: α1a (rat) adrenoreceptor (Rattus norvegicus, UniProt P43140)
# Sequence (P43140 whole entry): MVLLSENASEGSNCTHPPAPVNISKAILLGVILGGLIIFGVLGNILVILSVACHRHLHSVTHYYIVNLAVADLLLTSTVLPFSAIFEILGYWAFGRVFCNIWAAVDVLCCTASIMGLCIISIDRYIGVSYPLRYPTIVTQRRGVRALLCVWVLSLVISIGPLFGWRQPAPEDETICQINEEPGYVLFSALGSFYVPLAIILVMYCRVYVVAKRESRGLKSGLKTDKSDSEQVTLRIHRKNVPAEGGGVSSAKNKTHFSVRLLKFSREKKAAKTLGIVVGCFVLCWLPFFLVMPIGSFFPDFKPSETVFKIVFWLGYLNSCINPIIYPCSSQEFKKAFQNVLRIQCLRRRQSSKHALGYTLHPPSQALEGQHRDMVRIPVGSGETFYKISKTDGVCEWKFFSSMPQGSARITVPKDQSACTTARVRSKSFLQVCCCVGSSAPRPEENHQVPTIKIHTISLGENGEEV
# assay_explanation: [3H]-prazosin radioligand binding, cloned α1a (rat) adrenoreceptor in LTK cells
# stated_conditions: cloned receptor in LTK cell membranes, [3H]prazosin 0.2 nM
# Experimental: The cDNA clones encoding the α1, adrenoreceptors were obtained from TULCO (Triangle Universities Licensing Consortium, Research Triangle Park, N.C.) and inserted into the eukaryotic expression vector SnaB30. […] Following equilibration, bound radioligand was separated from free on GF/B filters (presoaked in 0.5% polyethyleneimine) using ither a Brandel or Packard cell harvester. Radioactivity was determined by standard liquid scintillation techniques.
Structures can show the parent of a compound that is named as a salt.
Please respond with reported Ki for every item in the list.

Which measured Ki value corresponds to O=c1[nH]c2c(sc3cccnc32)c(=O)n1CCCN1CCN2c3ccccc3OCC2C1 (single isomer, unassigned; (-)) [Example 2, dihydrochloride] ?
19.3 nM

Which measured Ki value corresponds to COc1cccc2c1N1CCN(CCCCn3c(=O)[nH]c4c(sc5ncc(Cl)nc54)c3=O)CC1CO2.Cl.Cl (single isomer, unassigned; (-)) [Example 12, dihydrochloride] ?
0.648 nM

Which measured Ki value corresponds to COc1cccc2c1N1CCN(CCCCn3c(=O)[nH]c4c(sc5cccnc54)c3=O)CC1CO2 (single isomer, unassigned; (+)) [Example 14, trihydrochloride] ?
0.29 nM

* * *

Structures can show the parent of a compound that is named as a salt.
endpoint_name: melting point

Which measured melting point value corresponds to COc1cccc2c1N1CCN(CCn3c(=O)[nH]c4c(sc5ncc(Cl)nc54)c3=O)CC1CO2.Cl.Cl (single isomer, unassigned; (+)) [Example 8] ?
280 to 283 °C

Which measured melting point value corresponds to COc1cccc2c1N1CCN(CCCCn3c(=O)[nH]c4c(sc5ncc(Cl)nc54)c3=O)CC1CO2.Cl.Cl (single isomer, unassigned; (-)) ?
198 to 201 °C

Which measured melting point value corresponds to COc1cccc2c1N1CCN(CCCCn3c(=O)[nH]c4c(sc5ncccc54)c3=O)CC1CO2.Cl.Cl.Cl (single isomer, unassigned; (+)) ?
225 to 230 °C

Which measured melting point value corresponds to COc1cccc2c1N1CCN(CCn3c(=O)[nH]c4c(sc5ncc(Cl)nc54)c3=O)CC1CO2.Cl.Cl (single isomer, unassigned; (-)) [Example 13] ?
280 to 282 °C

Which measured melting point value corresponds to Cl.Cl.O=c1[nH]c2c(sc3ncccc32)c(=O)n1CCCCN1CCN2c3ccccc3OCC2C1 (single isomer, unassigned; (+)) [Example 5] ?
288 to 291 °C

Which measured melting point value corresponds to Cl.Cl.O=c1[nH]c2c(sc3ncccc32)c(=O)n1CCCCN1CCN2c3ccccc3OCC2C1 (single isomer, unassigned; (-)) [Example 6] ?
290 to 293 °C

Which measured melting point value corresponds to COc1cccc2c1N1CCN(CCn3c(=O)[nH]c4c(sc5cccnc54)c3=O)CC1CO2.Cl.Cl.Cl (single isomer, unassigned; (+)) ?
301 to 302 °C

Which measured melting point value corresponds to COc1cccc2c1N1CCN(CCn3c(=O)[nH]c4c(sc5cccnc54)c3=O)CC1CO2.Cl.Cl (single isomer, unassigned; (-)) ?
297 to 298 °C

Which measured melting point value corresponds to COc1cccc2c1N1CCN(CCCCn3c(=O)[nH]c4c(sc5ncccc54)c3=O)CC1CO2 (single isomer, unassigned; (-)) (as salt: hydrochloride) [Example 11, trihydrochloride] ?
207 to 210 °C

Which measured melting point value corresponds to Cl.Cl.O=c1[nH]c2c(sc3cccnc32)c(=O)n1CCCCN1CCN2c3ccccc3OCC2C1 (single isomer, unassigned; (+)) ?
278 to 280 °C

Which measured melting point value corresponds to COc1cccc2c1N1CCN(CCCn3c(=O)[nH]c4c(sc5cccnc54)c3=O)CC1CO2.Cl.Cl.Cl (single isomer, unassigned; (-)) [Example 9] ?
215 to 220 °C
